# METHOD: Comparative stability test (total impurity content)
# Type: physicochemical
# TEST_CONDITIONS: 25° C., 60% relative humidity, packed; 2 months
For each of the compounds below, state its total impurity content % at 2 months.
Answers are plain numbers, in %.

List the reported total impurity content % at 2 months of each compound below.
1. CCOc1nc2cccc(C(=O)OC(C)OC(=O)OCc3nc(C)c(C)nc3C)c2n1Cc1ccc(-c2ccccc2-c2noc(=O)[n-]2)cc1.[K+] (stereo not shown) [mixture of crystalline form I and II]
2. CCOc1nc2cccc(C(=O)OC(C)OC(=O)OCc3nc(C)c(C)nc3C)c2n1Cc1ccc(-c2ccccc2-c2noc(=O)[n-]2)cc1.[K+] (stereo not shown) [crystalline form II]
3. CCOc1nc2cccc(C(=O)OC(C)OC(=O)OCc3nc(C)c(C)nc3C)c2n1Cc1ccc(-c2ccccc2-c2noc(=O)[n-]2)cc1.[K+] (stereo not shown) [crystalline form III]
4. CCOc1nc2cccc(C(=O)OC(C)OC(=O)OCc3nc(C)c(C)nc3C)c2n1Cc1ccc(-c2ccccc2-c2noc(=O)[n-]2)cc1.[K+] (stereo not shown) [crystalline form I]

1: 2.20; 2: 1.59; 3: 2.98; 4: 2.34

----------
# METHOD: Comparative stability test (total impurity content)
# Assay type: physicochemical
# TEST_CONDITIONS: 25° C., 60% relative humidity, packed; 3 months
READOUT_TYPE: total impurity content % at 3 months (%)
Answers are plain numbers, in %.

Look over these answered cases.
| COMPOUND | ASSAY_RESULT |
| --- | --- |
| CCOc1nc2cccc(C(=O)OC(C)OC(=O)OCc3nc(C)c(C)nc3C)c2n1Cc1ccc(-c2ccccc2-c2noc(=O)[n-]2)cc1.[K+] (stereo not shown) [mixture of crystalline form I and II] | 2.40 |
| CCOc1nc2cccc(C(=O)OC(C)OC(=O)OCc3nc(C)c(C)nc3C)c2n1Cc1ccc(-c2ccccc2-c2noc(=O)[n-]2)cc1.[K+] (stereo not shown) [crystalline form III] | 3.34 |
| CCOc1nc2cccc(C(=O)OC(C)OC(=O)OCc3nc(C)c(C)nc3C)c2n1Cc1ccc(-c2ccccc2-c2noc(=O)[n-]2)cc1.[K+] (stereo not shown) [crystalline form I] | 2.49 |

Now for a further compound.
Can you look up the measured total impurity content % at 3 months of CCOc1nc2cccc(C(=O)OC(C)OC(=O)OCc3nc(C)c(C)nc3C)c2n1Cc1ccc(-c2ccccc2-c2noc(=O)[n-]2)cc1.[K+] (stereo not shown) [crystalline form II] for me?
1.82

Data provenance is patent US11013736B2.
